Below are IC50 values for HPK1 (Homo sapiens (Human), UniProt Q92918) collected from several publications.

Look at this compound and give its reported IC50. O=C1CCC(N2C(=O)c3ccc(CN4CCC(OC(=O)N5CCN(c6cccc(-c7cnc8[nH]cc(C9CC9)c8c7Cl)c6)C(=O)C5)CC4)cc3C2=O)C(=O)N1 (stereo not shown)
10 to 100 nM

What value of IC50 has been reported for the following compound? CCN1CCC(n2cc(-c3c[nH]c4ncc(-c5cnc(OCCNC(=O)c6ccc(Cl)c(N7CCC(=O)NC7=O)c6)c(C)c5)nc34)cn2)CC1
1.4 nM

GET /values?readout=IC50&item= Cc1c[nH]c2ncc(-c3cc(C4COCCN4)c(C4CCOCC4)cc3Cl)cc12 (stereo not shown)
10 to 100 nM

Item under review: CCN1CCC(n2cc(-c3c[nH]c4ncc(-c5cnc(OCCN(C)C(=O)c6ccc(Cl)c(N7CCC(=O)NC7=O)c6)c(C)c5)nc34)cn2)CC1 . Reported IC50?
5.1 nM

# lookup: IC50 of COc1cc(-c2cnc3[nH]cc(C)c3c2)cc(C2COCCN2)c1C1CCOCC1 (stereo not shown)
5 to 10 nM

# map each compound to its IC50
1. CC(C)(O)[C@@H]1CCCN(c2ccc(Nc3ncc(-c4cnc5cc(F)ccn45)c4c3C(=O)NC4)cc2)C1 (single isomer, unassigned)
2. CCc1c[nH]c2ncc(-c3cccc(N4CCN(C(=O)CCN5CCN(c6cccc7c6C(=O)N(C6CCC(=O)NC6=O)C7=O)CC5)CC4=O)c3)c(Cl)c12 (stereo not shown)
3. CC1CN(CCCS(=O)(=O)N2CCN(c3cccc(-c4cnc5[nH]cc(C6CC6)c5c4Cl)c3)C(=O)C2)C1
4. CN(C)CC(=O)N1CCN(c2cccc(-c3cnc4[nH]cc(C#Cc5cccnc5)c4c3Cl)c2)C(=O)C1

["> 100 nM", "10 to 100 nM", "≤ 10 nM", "10 to 100 nM"]

// input: 4 compounds below; output: IC50 for each
1. CN1CCC(c2ncc(-c3cnc(N)c(OCc4cc(F)cc(C#CC(C)(C)O)c4)c3)s2)CC1
2. O=C1CCC(N2C(=O)c3ccc(C4=CCN(CCCN5CCN(c6cccc(-c7cnc8[nH]cc(C9CC9)c8c7Cl)c6)C(=O)C5)CC4)cc3C2=O)C(=O)N1 (stereo not shown)
3. CN1CCN(c2ncc3cc2OCCCOc2cccc(F)c2-c2cc4c-3n[nH]c4cn2)CC1
4. CCN1CCC(n2cc(-c3c[nH]c4ncc(-c5ccc(N6CCN(C7CCC(NC(=O)c8ccc(Cl)c(N9CCC(=O)NC9=O)c8)CC7)CC6)nc5)nc34)cn2)CC1 (stereo not shown)

1. < 100 nM
2. 10 to 100 nM
3. ≤ 5 nM
4. 0.9 nM

###

Across several studies, molecules have been characterized by their pIC50 on HPK1 (Homo sapiens (Human)); a selection follows.
Sequence (Q92918 whole entry): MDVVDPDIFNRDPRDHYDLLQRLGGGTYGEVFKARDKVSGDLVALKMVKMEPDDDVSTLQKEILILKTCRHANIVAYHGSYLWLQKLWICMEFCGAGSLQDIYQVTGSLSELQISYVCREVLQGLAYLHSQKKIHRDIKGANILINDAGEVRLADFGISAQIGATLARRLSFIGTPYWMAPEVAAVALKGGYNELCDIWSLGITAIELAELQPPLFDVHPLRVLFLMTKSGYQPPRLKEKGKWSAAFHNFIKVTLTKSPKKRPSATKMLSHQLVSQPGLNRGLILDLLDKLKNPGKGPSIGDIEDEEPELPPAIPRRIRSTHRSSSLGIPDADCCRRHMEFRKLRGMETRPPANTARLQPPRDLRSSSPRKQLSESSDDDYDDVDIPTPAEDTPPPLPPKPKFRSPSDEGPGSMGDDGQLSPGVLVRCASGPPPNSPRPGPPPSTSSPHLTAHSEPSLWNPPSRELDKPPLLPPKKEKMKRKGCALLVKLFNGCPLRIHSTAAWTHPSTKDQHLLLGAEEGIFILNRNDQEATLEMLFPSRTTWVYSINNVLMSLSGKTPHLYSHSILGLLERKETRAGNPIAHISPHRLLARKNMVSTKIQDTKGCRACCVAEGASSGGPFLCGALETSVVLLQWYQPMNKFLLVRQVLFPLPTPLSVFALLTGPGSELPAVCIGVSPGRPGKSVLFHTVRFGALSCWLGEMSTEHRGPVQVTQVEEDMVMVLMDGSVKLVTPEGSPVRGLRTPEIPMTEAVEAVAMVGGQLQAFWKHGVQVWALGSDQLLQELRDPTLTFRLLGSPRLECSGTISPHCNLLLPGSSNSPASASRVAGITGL
pIC50: −log10 of the molar value.

List reported pIC50 for each of these molecules:
1. O=C1CCC(N2Cc3cc(C4=CCN(CCCN5CCN(c6cccc(-c7cnc8[nH]cc(C9CC9)c8c7Cl)n6)C(=O)C5)CC4)ccc3C2=O)C(=O)N1 (stereo not drawn)
2. CC1OCCC1(O)c1cc(-c2cnc(N)c(Oc3cnn(C4CCN(C)CC4)c3)n2)cc(N2CCOC[C@H]2C)c1 (stereo partly drawn)
3. CNS(=O)(=O)c1cc(OC)cc(-c2cnc(N)c(Oc3cnn(C4CCN(C)CC4)c3)n2)c1
4. O=C1CCC(N2C(=O)c3ccc(CCN4CCC(OC(=O)N5CCN(c6cccc(-c7cnc8[nH]cc(C9CC9)c8c7Cl)c6)C(=O)C5)CC4)cc3C2=O)C(=O)N1 (stereo not drawn)
5. CNS(=O)(=O)c1cc(-c2cnc(N)c(Oc3cnn(C4CCN(C)CC4)c3)n2)cc(N2CCCCC2)c1
6. Fc1cccc2c1-c1cc3c(n[nH]c3cn1)-c1ccc(N3CCNCC3)c(c1)OCCCOC2
7. CCc1c[nH]c2ncc(-c3cccc(N4CCN(CCC(=O)N5CCN(c6ccc7c(c6)C(=O)N(C6CCC(=O)NC6=O)C7=O)CC5)CC4=O)c3)c(Cl)c12 (stereo not drawn)

1: ≥ 8.00; 2: 7.82; 3: 7.70; 4: 7.00 to 8.00; 5: 7.96; 6: ≥ 8.30; 7: 7.00 to 8.00

Quick batch: pIC50 for everything below.
1. CC1CN(C)CCN1c1ncc(-c2cnc(N)c(OCc3cccc(C#CC(C)(C)O)c3)c2)s1 (stereo not drawn)
2. O=C1CCC(N2C(=O)c3ccc(C4CCN(CCCN5CCN(c6cccc(-c7cnc8[nH]cc(C9CC9)c8c7Cl)c6)C(=O)C5)CC4)cc3C2=O)C(=O)N1 (stereo not drawn)
3. Fc1cccc2c1-c1cc3c(n[nH]c3cn1)-c1ccc(N3C[C@@H]4C[C@H]3CN4C3COC3)c(c1)OCCCO2
4. Cn1cnc(C#Cc2c[nH]c3ncc(-c4cccc(N5CCNCC5=O)c4)c(Cl)c23)n1

1. > 7.00
2. ≥ 8.00
3. 7.30 to 8.30
4. 7.00 to 8.00

Batch request: pIC50 for each of the following molecules.
1. Cn1ccc2c(-c3cnc(Nc4ccc(N5CCC[C@H](C(C)(C)O)C5)cc4)c4c3CNC4=O)ccnc21
2. O=C1CCC(N2Cc3cc(C4=CCN(CCCN5CCN(c6cccc(-c7cnc8[nH]cc(C9CC9)c8c7Cl)c6)C(=O)C5)CC4)ccc3C2=O)C(=O)N1 (stereo not drawn)

1: ≥ 7.00; 2: ≥ 8.00

Consider the following items and state reported pIC50 for each.
1. CN(C)CCCS(=O)(=O)N1CCN(c2cccc(-c3cnc4[nH]cc(CC(F)F)c4c3Cl)c2)C(=O)C1
2. O=C1CCN(c2cccc3cc(N4CCN(CCCN5CCN(c6cccc(-c7cnc8[nH]cc(C9CC9)c8c7Cl)n6)C(=O)C5)CC4)ccc23)C(=O)N1
3. Cc1cc(-c2cnc3[nH]cc(C)c3c2)cc([C@@H]2COCCN2)c1C1CCOCC1
4. Cc1cc(-c2c[nH]c3ncc(-c4cc(C)c5c(c4)CCN(CCC(=O)NCC4CCN(c6ccc(C7CCC(=O)NC7=O)cc6)CC4)C5)nc23)ccc1C(=O)N(C)C (stereo not drawn)
5. CN1CCN(c2ccc3cc2OCCCOc2cccc(F)c2-c2cc4c-3n[nH]c4cn2)C[C@H]1CO

≥ 8.00
≥ 8.00
8.30 to 11.00
6.60
≥ 8.30
